tested on: 349418-098-R-PDC spheroids, viability, % test/control; experiment: Anticancer human tumor 349418-098-R-PDC patient-derived lung adenocarcinoma cell line growth inhibition [IpAb]; conditions: second compound 1 µM; first compound 10 µM; spheroids with HUVEC and MSC; active means viability on the fitted dose curve at most 10% of control; inactive means the rest;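 further: spheroids exposed to compounds for 7 days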
Valid outcomes are listed here; reply with one: class 1 = active, class 0 = inactive

For Cc1nc(NC(=O)N2CCCC2C(N)=O)sc1-c1ccnc(C(C)(C)C(F)(F)F)c1 (centres undefined) + CCN1CCN(Cc2ccc(Nc3ncc(F)c(-c4cc(F)c5nc(C)n(C(C)C)c5c4)n3)nc2)CC1 , which call appears in the assay record? class 1

For Cn1ncc(Cl)c1-c1cc(C(=O)NC(CN)Cc2cccc(F)c2)sc1Cl (centres undefined) + CCN1CCN(Cc2ccc(Nc3ncc(F)c(-c4cc(F)c5nc(C)n(C(C)C)c5c4)n3)nc2)CC1 , which call appears in the assay record? class 1

For CCCS(=O)(=O)Nc1ccc(F)c(C(=O)c2c[nH]c3ncc(-c4ccc(Cl)cc4)cc23)c1F + CC(C)NCC(C(=O)N1CCN(c2ncnc3c2C(C)CC3O)CC1)c1ccc(Cl)cc1 , which call appears in the assay record? class 1

For Cn1nccc1Nc1nccc(-c2ccn(C(CO)c3ccc(Cl)c(F)c3)c(=O)c2)n1 (centres undefined) + CCN1CCN(Cc2ccc(Nc3ncc(F)c(-c4cc(F)c5nc(C)n(C(C)C)c5c4)n3)nc2)CC1 , which call appears in the assay record? class 0

For CC1(C)CCC(CN2CCN(c3ccc(C(=O)NS(=O)(=O)c4ccc(NCC5CCOCC5)c([N+](=O)[O-])c4)c(Oc4cnc5[nH]ccc5c4)c3)CC2)=C(c2ccc(Cl)cc2)C1 + CC(C)NCC(C(=O)N1CCN(c2ncnc3c2C(C)CC3O)CC1)c1ccc(Cl)cc1 , which call appears in the assay record? class 1

For C=CCn1c(=O)c2cnc(Nc3ccc(N4CCN(C)CC4)cc3)nc2n1-c1cccc(C(C)(C)O)n1 + CCN1CCN(Cc2ccc(Nc3ncc(F)c(-c4cc(F)c5nc(C)n(C(C)C)c5c4)n3)nc2)CC1 , which call appears in the assay record? class 1

For C=CC(=O)N1CCN(c2nc(=O)n(-c3c(C)ccnc3C(C)C)c3nc(-c4c(O)cccc4F)c(F)cc23)C(C)C1 (centres undefined) + CC(C)NCC(C(=O)N1CCN(c2ncnc3c2C(C)CC3O)CC1)c1ccc(Cl)cc1 , which call appears in the assay record? class 1

For Cn1ncc(Cl)c1-c1cc(C(=O)NC(CN)Cc2cccc(F)c2)sc1Cl (centres undefined) + CC(C)NCC(C(=O)N1CCN(c2ncnc3c2C(C)CC3O)CC1)c1ccc(Cl)cc1 , which call appears in the assay record? class 1

Next compound, please.
For CC1(C)CCC(CN2CCN(c3ccc(C(=O)NS(=O)(=O)c4ccc(NCC5CCOCC5)c([N+](=O)[O-])c4)c(Oc4cnc5[nH]ccc5c4)c3)CC2)=C(c2ccc(Cl)cc2)C1 + CCN1CCN(Cc2ccc(Nc3ncc(F)c(-c4cc(F)c5nc(C)n(C(C)C)c5c4)n3)nc2)CC1 , which call appears in the assay record? class 0
